FYI, the data here is from patent US20210196796A1.

Target: T1, orthogonal hCD122 receptor (hoRb), hCD122 with H133D and Y134F (human, UniProt P14784 27-550); also: reference of the scale not given here
T1 sequence: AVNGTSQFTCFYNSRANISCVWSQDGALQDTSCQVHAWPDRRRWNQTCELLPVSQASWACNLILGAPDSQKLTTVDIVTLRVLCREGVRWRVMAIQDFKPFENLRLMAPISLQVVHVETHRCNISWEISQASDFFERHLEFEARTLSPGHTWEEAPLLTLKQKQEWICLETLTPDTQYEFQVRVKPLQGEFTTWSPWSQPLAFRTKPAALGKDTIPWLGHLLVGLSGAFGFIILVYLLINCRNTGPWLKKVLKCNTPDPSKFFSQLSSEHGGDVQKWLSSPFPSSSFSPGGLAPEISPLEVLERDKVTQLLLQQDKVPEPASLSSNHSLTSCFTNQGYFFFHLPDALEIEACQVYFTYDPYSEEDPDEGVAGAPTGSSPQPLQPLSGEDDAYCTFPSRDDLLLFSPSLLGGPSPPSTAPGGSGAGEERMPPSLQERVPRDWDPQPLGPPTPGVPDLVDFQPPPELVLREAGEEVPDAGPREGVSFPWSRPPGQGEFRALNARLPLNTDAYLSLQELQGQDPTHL
Assay: cell-based or functional assay
value type: Relative Proliferation Fold Change 3F8 1:10
# number then unit; no other words

Please review the entries below; each comes with its answer.
binder	measured value
T3D, SQVLKA (ligand) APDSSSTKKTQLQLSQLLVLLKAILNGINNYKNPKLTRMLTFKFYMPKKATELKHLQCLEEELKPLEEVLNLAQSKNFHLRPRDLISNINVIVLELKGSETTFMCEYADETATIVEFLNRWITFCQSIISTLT	18.6 fold
L18D, SQVLKA (ligand) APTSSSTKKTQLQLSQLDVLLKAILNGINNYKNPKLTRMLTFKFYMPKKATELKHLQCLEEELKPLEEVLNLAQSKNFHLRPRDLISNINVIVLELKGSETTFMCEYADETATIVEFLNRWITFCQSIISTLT	81.3 fold
SQVLMA (ligand) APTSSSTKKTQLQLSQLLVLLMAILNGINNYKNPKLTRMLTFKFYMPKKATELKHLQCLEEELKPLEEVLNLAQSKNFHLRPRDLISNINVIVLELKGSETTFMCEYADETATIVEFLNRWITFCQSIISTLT	14.5 fold
ΔP2, SQVLKA (ligand) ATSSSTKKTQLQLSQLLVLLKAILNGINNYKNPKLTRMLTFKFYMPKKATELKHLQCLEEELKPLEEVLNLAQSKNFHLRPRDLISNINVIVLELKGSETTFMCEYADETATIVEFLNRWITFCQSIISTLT	29.4 fold
T3Q, SQVLKA (ligand) APQSSSTKKTQLQLSQLLVLLKAILNGINNYKNPKLTRMLTFKFYMPKKATELKHLQCLEEELKPLEEVLNLAQSKNFHLRPRDLISNINVIVLELKGSETTFMCEYADETATIVEFLNRWITFCQSIISTLT	28.2 fold
SQVLKL (ligand) APTSSSTKKTQLQLSQLLVLLKLILNGINNYKNPKLTRMLTFKFYMPKKATELKHLQCLEEELKPLEEVLNLAQSKNFHLRPRDLISNINVIVLELKGSETTFMCEYADETATIVEFLNRWITFCQSIISTLT	15.3 fold

Now turn to the next binder.
Q. I am curious: what Relative Proliferation Fold Change 3F8 1:10 value has been reported for ΔT51, SQVLKA (ligand) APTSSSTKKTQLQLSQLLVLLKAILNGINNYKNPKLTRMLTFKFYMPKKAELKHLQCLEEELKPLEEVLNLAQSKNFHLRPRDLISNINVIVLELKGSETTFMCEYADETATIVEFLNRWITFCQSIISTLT ?
A. 8.73 fold
